Tested on: HT-29
Experiment: NCI tumour cell line growth inhibition, 48 h
Active and inactive are the calls of the source. Rule as the data show it: active = GI50 up to about 1.1 µM and inactive = higher.
Choose one outcome from this list and give only that: yes (1) for active, no (0) for inactive

| COMPOUND | CLASS |
| --- | --- |
| Cc1ccc(NC(=O)C(=O)C2C(=O)C3=C(CC2(C)C)NC2C=CC=CC2S3)c(C)c1 (stereo not given) | no (0) |
| Oc1cc(-c2ccco2)nc2cc3c(cc12)OCO3 | no (0) |
| CC1(C)OC2OC(COC(=O)c3ccc(C#N)cc3)C3OC(C)(C)OC3C2O1 (stereo not given) | no (0) |
| CC(C)(OCc1ccccc1)c1ccccc1P(c1ccccc1)c1ccccc1 | no (0) |
| CC(=O)O[C@H]1CC[C@@]2(C)C(=CC[C@@H]3C2CC[C@]2(C)Nc4[nH]ncc4CC32)C1 (stereo not given in full) | no (0) |

Lab log entry: CC1(C)O[C@@H](C[C@]2(C#N)C[C@H](CCl)OC(C)(C)O2)C[C@@H](C#N)O1 — outcome as called in the assay?
no (0)

Lab log entry: Cc1cccc(NC(=O)CCl)c1 — outcome as called in the assay?
no (0)

Lab log entry: CCN(CC)CCn1ccc(=O)c2cc3c(=O)ccn(CCN(CC)CC)c3c(C)c21 — outcome as called in the assay?
no (0)

Lab log entry: Cc1ccccc1N/N=C1\C(=O)Nc2ccccc21 — outcome as called in the assay?
no (0)

Lab log entry: CC1=C(C(=O)OCCc2ccc([N+](=O)[O-])cc2)C(c2cccc([N+](=O)[O-])c2)C(C(=O)OC(C)C)=C(C)N1 (stereo not given) — outcome as called in the assay?
no (0)

====

Tested on: UO-31
Assay: NCI tumour cell line growth inhibition, 48 h
Activity calls are given as the source filed them. Cut-off read from the data, not from the text of the source: active = GI50 up to about 1.1 µM and inactive = higher.
PROPERTY MEASURED: GI50

| COMPOUND | EXPERIMENTAL TARGET | PROPERTY MEASURED | VALUE REPORTED |
| --- | --- | --- | --- |
| CC(C)(C)c1cc(OCc2nnc(S)n2N)c(Cl)cc1OCc1nnc(S)n1N | UO-31 | GI50 | 63.2 µM (inactive) |

Sample O=C(/C=C/c1ccc(O)c(O)c1)OCCc1cccc2ccccc12 — what was its GI50?
4.21 µM (inactive)

Sample Nn1c(S)nnc1-c1ccccc1Nc1ccccc1-c1nnc(S)n1N — what was its GI50?
> 50 µM (inactive)

Sample CCCCC/C=C1/CC(CO)(COC(=O)CC(C(C)C)C(C)C)OC1=O (stereo not given) — what was its GI50?
11.9 µM (inactive)

Sample Cn1c(C(C#N)c2nc(Cl)ncc2Br)nc2ccccc21 (stereo not given) — what was its GI50?
> 100 µM (inactive)

Sample CCOc1nc(N)nc(C)c1/N=N/c1ccc(Cl)cc1 — what was its GI50?
45 µM (inactive)

Sample COCn1cnc2c(=O)n(-c3ccc(C)cc3)c(=S)n(-c3ccc(C)cc3)c21 — what was its GI50?
38.6 µM (inactive)

Sample COC(=O)Cc1c([C@H]2[C@H](CC(=O)OC)c3ccccc3N2S(=O)(=O)c2ccc(C)cc2)[nH]c2ccccc12 — what was its GI50?
> 100 µM (inactive)

Sample N#Cc1cc([N+](=O)[O-])ccc1NC(=O)C(F)(F)F — what was its GI50?
> 100 µM (inactive)

Sample O=[N+]([O-])c1cc2oc(COc3ccccc3)nc2cc1Cl — what was its GI50?
27.2 µM (inactive)

====

Tested on: LOX IMVI
Experiment: NCI tumour cell line growth inhibition, 48 h
Activity calls are given as the source filed them. No stated cut-off is given here; in the data, active = GI50 up to about 1.1 µM and inactive = higher.
Choose one outcome from this list and give only that: label 1 (active), label 0 (inactive)

For orientation, consider the following solved cases.
| SMILES | CLASS |
| --- | --- |
| Cc1noc(NC(=O)Nc2ccccc2F)c1C#N | label 0 |
| COc1ccc(OC)c(NC(=O)CCC/C(CC(=O)c2ccc(O)c(OC)c2)=N\Nc2ccc([N+](=O)[O-])cc2)c1 | label 0 |
| N#C/C(=C\c1ccccc1Br)C(=O)c1ccccc1 | label 0 |
| COc1cccc2c1cc([N+](=O)[O-])c1c(C(=O)O)cc3c(c12)OCO3 | label 0 |
| CNS(=O)(=O)NN(C)S(=O)(=O)c1ccc(F)cc1 | label 0 |
| Cc1ccccc1N/N=C1\C(=O)Nc2ccccc21 | label 0 |
| O=C(O)c1nc(-c2ccccc2)[nH]c1C(=O)O | label 0 |
| CN(C)CCN1Nc2c3ccccc3nc3c(C(=O)NCCCN(C)CCCNC(=O)c4ccc5c6c(c7ccccc7nc46)NN5CCN(C)C)ccc1c23 | label 1 |
| Cc1csc2nc(-c3ccncc3)cn12 | label 0 |

# evaluate next
Lab log entry: CN(N=O)C(=O)Nc1ccc(C(=O)O)cc1 — outcome as called in the assay?
label 0

====

Tested on: LXFL 529
Assay: NCI tumour cell line growth inhibition, 48 h
Activity calls are given as the source filed them. Rule as the data show it: active = GI50 up to about 1.1 µM and inactive = higher.
PROPERTY MEASURED: GI50

| COMPOUND | GI50 |
| --- | --- |
| Cc1cccc(NC(=O)c2cc3cc(/N=N/c4ccccc4Cl)ccc3oc2=O)c1 | 27.2 µM (inactive) |

Sample Cc1csc2nc(-c3ccncc3)cn12 — what was its GI50?
> 51.3 µM (inactive)

Sample N/N=C1\C(=O)N(c2ccc(Cl)cc2Cl)C(=O)C(=O)C1c1nc2ccccc2o1 (configuration not stated) — what was its GI50?
> 100 µM (inactive)

Sample Nc1ncnc2c1sc(=S)n2-c1ccccc1 — what was its GI50?
> 100 µM (inactive)

Sample Cc1cc(C)n(-c2c(O)ccc(O)c2-n2nc(C)cc2C)n1 — what was its GI50?
> 100 µM (inactive)

Sample Cc1ccc(SC(C)/C=C/NNC2=NN=C(c3ccccc3)C(c3ccccc3)N2)cc1 (configuration not stated) — what was its GI50?
25.8 µM (inactive)

Sample NC1=NN(c2ccccc2)C(=O)C1C(=O)C(=O)Nc1nccs1 (configuration not stated) — what was its GI50?
> 100 µM (inactive)

====

Tested on: SK-OV-3
Assay: NCI tumour cell line growth inhibition, 48 h
The source made the active and inactive calls. Cut-off read from the data, not from the text of the source: active = GI50 up to about 1.1 µM and inactive = higher.
PROPERTY MEASURED: GI50

Sample answers from the record:
| COMPOUND | EXPERIMENTAL TARGET | VALUE REPORTED |
| --- | --- | --- |
| C/C(=C\c1csc(C)n1)[C@@H]1C[C@@H]2O[C@@H]2CCC[C@H](C)[C@H](O)[C@@H](C)C(=O)C(C)(C)[C@@H](O)CC(=O)O1.C/C(=C\c1csc(C)n1)[C@@H]1C[C@@H]2O[C@]2(C)CCC[C@H](C)[C@H](O)[C@@H](C)C(=O)C(C)(C)[C@@H](O)CC(=O)O1 | SK-OV-3 | 0.00971 µM (active) |
| CC(C)(OCc1ccccc1)c1ccccc1P(c1ccccc1)c1ccccc1 | SK-OV-3 | > 100 µM (inactive) |
| Cc1cn(CC2(CO)CCC2)c(=O)[nH]c1=O | SK-OV-3 | > 100 µM (inactive) |

Sample Cc1ccccc1N/N=C1\C(=O)Nc2ccccc21 — what was its GI50?
> 100 µM (inactive)

Sample CCCCCCc1cc(C=O)sc1-c1ccc(-c2sc(-c3ccc(-c4ccc(-c5cc(CCCCCC)c(-c6ccc(-c7sc(C=O)cc7CCCCCC)s6)s5)s4)s3)cc2CCCCCC)s1 — what was its GI50?
> 100 µM (inactive)

Sample CCSc1[nH]c(/N=C(/NC(=O)c2ccccc2)NC(C)C)c(C(N)=O)c1C(N)=O — what was its GI50?
> 10 µM (inactive)

Sample COC(=O)C(=O)C(C(C)=O)C(=O)NCc1ccc(OC)c(OC)c1 (stereo not drawn) — what was its GI50?
> 100 µM (inactive)

Sample Cc1c(F)c(N)c2c(=O)cc(-c3ccc(N)c(F)c3)oc2c1F — what was its GI50?
17.6 µM (inactive)

Sample CCOC(=O)CNC1=Nc2ccccc2C(=O)N2CSCC12 (stereo not drawn) — what was its GI50?
> 100 µM (inactive)

Sample CNC1=C(C)C(=O)C2=C(C1=O)C(COC(N)=O)C1(OC)C3NC3CN21 (stereo not drawn) — what was its GI50?
1.27 µM (inactive)

Sample OC(c1cc2ccccc2o1)c1cc2ccccc2s1 (stereo not drawn) — what was its GI50?
> 10 µM (inactive)

====

Tested on: OVCAR-3
Assay: NCI tumour cell line growth inhibition, 48 h
The source made the active and inactive calls. Rule as the data show it: active = GI50 up to about 1.1 µM and inactive = higher.
Choose one outcome from this list and give only that: 1 (active), 0 (inactive)

For orientation, consider the following solved cases.
| COMPOUND | CLASS |
| --- | --- |
| CC1=CC(C)C(O)C(C)/C=C\C(O)C/C=C(/C)C(=O)CC(O)C(C)\C=C/C=C\C=C/C(=O)NC2=C(O)C(=O)c3c(cc(C)c(O)c3C1=O)C2=O (centres undefined) | 0 |
| CC[C@@]1(O)C(=O)OCc2c1cc1n(c2=O)Cc2cc3c(NC(=O)CN)cccc3nc2-1 | 0 |
| Cc1cccc(C)c1NC(=O)C(=O)C(C#N)c1ccccc1 (centres undefined) | 0 |
| O=C1Sc2ccccc2/C1=N/Nc1ccccc1[N+](=O)[O-] | 0 |
| COc1cc(O)cc(/C=C/c2ccc(O)cc2)c1 | 0 |

Lab log entry: O=C(O)CCC[C@]1(O)O[C@@]2(CCCC2=O)[C@]2(O)CCC[C@@]21O — outcome as called in the assay?
0

Lab log entry: CCCCc1ccc(C#CC#Cc2ccc(CCCC)s2)s1 — outcome as called in the assay?
0

Lab log entry: O=C(/C=C/c1ccc(O)c(O)c1)OCCc1cccc2ccccc12 — outcome as called in the assay?
0

Lab log entry: O=C(O)c1nc(-c2ccccc2)[nH]c1C(=O)O — outcome as called in the assay?
0

Lab log entry: CN/N=C(\C(=O)Nc1ccc(C(F)(F)F)cc1[N+](=O)[O-])C(c1cnc2ccc([N+](=O)[O-])cc2n1)[N+](=O)[O-] (centres undefined) — outcome as called in the assay?
0

Lab log entry: Cc1csc2nc(-c3ccncc3)cn12 — outcome as called in the assay?
0

Lab log entry: CCCCCCC(O)CC[C@H]1CCC[C@@H](C)N1 (some centres undefined) — outcome as called in the assay?
0

Lab log entry: CCCCCCCCCCCCOP(N)(=O)OCCCCCCCCCCCC — outcome as called in the assay?
0

Lab log entry: CN1CCCc2nc3ccccc3n2C1 — outcome as called in the assay?
0

Lab log entry: O=C(CCCn1ccnc1[N+](=O)[O-])NCCn1cncc1[N+](=O)[O-] — outcome as called in the assay?
0

Lab log entry: Nc1ncnc2c1sc(=S)n2-c1ccccc1 — outcome as called in the assay?
0
